Origin of values: patent US20240409557A1

SUBJECT OF TEST: 15-PGDH in A549 cells (Homo sapiens, UniProt P15428)
Construct: endogenous in cells
EXPERIMENT: A549 cellular 15-PGDH assay (PGE2 accumulation, HTRF)
ASSAY SETUP: interleukin-stimulated, inhibitor 24 hrs, PGE2 by competitive HTRF, read-out: A549 Cell Assay IC50
In this section, each of the compounds is paired with its reported IC50.
Express the reported value numerically, then name its unit.

• Cn1nnc2cc(-c3ncc4cc([C@]5(O)C[C@](C)(C#N)C5)sc4n3)cnc21 (single isomer, unassigned) [Compound C98T] = 2.66 nM
• COCC[C@H](O)c1cc2ccc(-c3cnc4nn(C)cc4c3)nc2s1 (single isomer, unassigned) [Compound B29S] = 3.08 nM
• Cc1cn2ccc(-c3ccc4cc(C5(O)CC(F)(F)C5)sc4n3)cc2n1 = 6.17 nM
• Cn1cc2cc(-c3ccc4cc([C@@H](O)C5COC5)sc4n3)cnc2n1 (single isomer, unassigned) [Compound B28S] = 9.56 nM
• O[C@]1(c2cc3ccc(-c4cnc5[nH]nnc5c4)nc3s2)C[C@H](C(F)F)C1 [Compound C103C] = 2.43 nM

### Prompt Which measured IC50 value corresponds to Cc1c2cnc(-c3cnc4nn(C)cc4c3)nc2sc1[C@]1(O)C[C@@H](C(F)F)C1 [Compound C90C] ?
### Response 33 nM

### Prompt Same lookup for Cn1cc2cc(-c3ccc4cc([C@H](O)C(F)(F)F)sc4n3)cnc2n1 (single isomer, unassigned) [Compound B23R] , please.
### Response 0.389 nM

----------
SUBJECT OF TEST: human recombinant 15-PGDH (Homo sapiens)
Sequence (P15428 whole entry): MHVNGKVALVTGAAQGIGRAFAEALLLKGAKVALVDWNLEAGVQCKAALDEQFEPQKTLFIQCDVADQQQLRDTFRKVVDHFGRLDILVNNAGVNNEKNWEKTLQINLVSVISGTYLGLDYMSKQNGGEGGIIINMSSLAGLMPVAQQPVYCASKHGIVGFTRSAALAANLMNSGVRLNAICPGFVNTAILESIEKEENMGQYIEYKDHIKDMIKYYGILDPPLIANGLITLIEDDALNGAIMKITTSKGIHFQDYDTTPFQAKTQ
EXPERIMENT: Recombinant 15-PGDH enzymatic inhibition assay (PGDH-Lumi, NADH signal)
ASSAY SETUP: recombinant 15-PGDH; 15 min pre-incubation, 60 min reaction with PGE2 and NAD+, NADH signal
ENDPOINT: IC50 (nM)
Supply the numeric figure in nM, leaving out any unit text.

Use these answered entries as a reference point.
* Cn1cc2cc(-c3ccc4cc([C@H](O)C5CCC(F)(F)CC5)sc4n3)cnc2n1 (single isomer, unassigned) [Compound B31R] | 0.203
* CCC[C@H](O)c1cc2ccc(-c3cnc4nn(C)cc4c3)cc2s1 (single isomer, unassigned) [Compound B54S] | 757
* Cc1c([C@@H](O)C2CC(F)(F)C2)sc2nc(-c3cnc4nn(C)cc4c3)ccc12 (single isomer, unassigned) [Compound B83S] | 5.13

### Prompt Which measured IC50 value corresponds to COCCC(O)c1cc2ccc(-c3cnc4nn(C)cc4c3)cc2s1 (stereo not shown) ?
### Response 8.41

### Prompt Same lookup for Cn1nnc2cc(-c3ccc4cc([C@@H](O)C5CC(F)(F)C5)sc4n3)cnc21 [Compound B82S] , please.
### Response 1.65

### Prompt Same lookup for Cn1nnc2cc(-c3ncc4cc([C@]5(O)C[C@@H](OC(F)(F)F)C5)sc4n3)cnc21 [Compound C111C] , please.
### Response 1.09

### Prompt Same lookup for Cn1cc2cc(-c3ccc4ccc([C@H](O)C5CC(F)(F)C5)cc4n3)cnc2n1 (single isomer, unassigned) , please.
### Response 0.605

### Prompt Same lookup for Cn1cc2cc(-c3ccc4cc([C@H](O)C5(C)CC(F)(F)C5)sc4n3)cnc2n1 (single isomer, unassigned) [Compound B86R] , please.
### Response 0.504
